These entries and their values trace back to the supplement of paper PMC13380429.

System: Vero E6 infected with SARS-CoV-2
Assay: inhibition of SARS-CoV-2 cytopathic effect; higher = more antiviral protection, active = above 15
Settings: 8.33 nM; 48 h
parameter measured: inhibition of SARS-CoV-2 cytopathic effect (%)
Answers are plain numbers, in %.

compound | test system | recorded number
C=C[C@]1(C)CC[C@@H](C(=C)C)C[C@H]1C(=C)C | Vero E6 infected with SARS-CoV-2 | 1.03
CC(Cc1ccccc1)(NC(=O)CN)c1ccccc1 (centres undefined) [remacemide] | Vero E6 infected with SARS-CoV-2 | 0.62
C=C1/C(=C\C=C2/CCC[C@]3(C)[C@@H]([C@H](C)OCCC(C)(C)O)CC[C@@H]23)C[C@@H](O)C[C@@H]1O | Vero E6 infected with SARS-CoV-2 | 0.65
COc1cc(-n2c(=S)[nH]c3ccccc3c2=O)c(Cl)cc1Cl | Vero E6 infected with SARS-CoV-2 | 0.3
NC[C@H]1CC[C@H](C(=O)O)CC1 | Vero E6 infected with SARS-CoV-2 | 1.51
C[C@H]1[C@H](C)CC[C@]2(C(=O)O)CC[C@]3(C)C(=CC[C@@H]4[C@@]5(C)C[C@@H](O)[C@H](O)[C@@](C)(CO)[C@@H]5CC[C@]43C)[C@H]12 | Vero E6 infected with SARS-CoV-2 | -0.62

Provide inhibition of SARS-CoV-2 cytopathic effect values for the following items, in order.
1. N#Cc1ccc(C2CCCc3cncn32)cc1 (centres undefined)
2. CC1CCc2c(N3CCC(O)CC3)c(F)cc3c(=O)c(C(=O)O)cn1c23 (centres undefined)
3. On1ncc(C2CCNCC2)c1-c1cccc(-c2ccccc2)c1

Response:
0.56
1.42
1.61
